Origin of the recorded values: ChEMBL document CHEMBL1128049

# target: UniProt:Q60484
# Sequence (Q60484 whole entry): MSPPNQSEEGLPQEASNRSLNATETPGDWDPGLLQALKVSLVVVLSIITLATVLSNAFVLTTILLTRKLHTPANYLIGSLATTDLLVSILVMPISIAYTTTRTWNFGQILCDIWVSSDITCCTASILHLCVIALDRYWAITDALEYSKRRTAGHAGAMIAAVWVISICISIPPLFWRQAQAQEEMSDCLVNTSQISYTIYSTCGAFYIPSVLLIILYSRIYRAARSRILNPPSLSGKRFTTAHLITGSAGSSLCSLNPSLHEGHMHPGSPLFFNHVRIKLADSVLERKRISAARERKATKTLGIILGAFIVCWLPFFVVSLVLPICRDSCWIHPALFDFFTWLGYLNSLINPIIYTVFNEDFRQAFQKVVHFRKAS
# assayRemarks: Compound was tested for the inhibition of forskolin-stimulated adenylate cyclase at 5-hydroxytryptamine 1D receptor in guinea pig substantia nigra
Recorded EC50 for the following molecules
readoutKind: EC50 (nM)

{"columns": ["molecule", "target", "scaleUnit", "endpointResult"],
 "data": [
  ["CN(C)CCc1c[nH]c2ccc(-n3cnc4cccnc43)cc12", "UniProt:Q60484", "nM", 14],
  ["CN1CCC[C@@H]1Cc1c[nH]c2ccc(-n3cnc4cc(C#N)ccc43)cc12", "UniProt:Q60484", "nM", 0.042],
  ["NCCc1c[nH]c2ccc(O)cc12 [SEROTONIN]", "UniProt:Q60484", "nM", 8.5]
]}

* * *

Entries below carry reported pIC50 on 5-hydroxytryptamine receptor 1A (Rattus norvegicus).
Sequence (P19327 whole entry): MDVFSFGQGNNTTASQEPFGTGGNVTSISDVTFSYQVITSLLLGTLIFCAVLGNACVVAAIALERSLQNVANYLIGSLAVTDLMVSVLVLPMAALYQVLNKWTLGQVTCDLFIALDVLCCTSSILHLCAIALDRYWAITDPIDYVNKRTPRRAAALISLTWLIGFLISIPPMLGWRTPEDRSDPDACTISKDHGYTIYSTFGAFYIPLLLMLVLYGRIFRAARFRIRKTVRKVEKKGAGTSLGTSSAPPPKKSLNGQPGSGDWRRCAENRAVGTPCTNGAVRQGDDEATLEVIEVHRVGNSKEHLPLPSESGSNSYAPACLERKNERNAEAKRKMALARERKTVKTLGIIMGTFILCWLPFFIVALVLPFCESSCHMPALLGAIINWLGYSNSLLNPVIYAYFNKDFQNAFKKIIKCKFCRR
pIC50: −log10 of the molar value.

{"columns": ["structureAsSmiles", "pIC50"],
 "data": [
  ["CN(C)CCc1c[nH]c2ccc(-n3cnc4cccnc43)cc12", 6.68],
  ["CN1CCC[C@@H]1Cc1c[nH]c2ccc(-n3cnc4cc(C#N)ccc43)cc12", 7.70]
]}
